Reference source: patent EP2930248B1

Test system: MG63
assayProtocol: Sensitivity test: cell viability (Cell Counting Kit-8) after anticancer agent, RNA-transfected cells
Type: cell-based, Human
experimentalConditions: MG63 cells, control (negative control nonsense RNA) introduced; MTX 72 hours, DOX and CDDP 48 hours
valueKind: pIC50
pIC50 here: minus log base 10 of the concentration, concentration in moles per litre.

Ask | Entry [NH2][Pt]([NH2])([Cl])[Cl] [CDDP, Cisplatin] : reported pIC50 = ?
Reply | 5.54

###

Test system: MNNG/HOS
assayProtocol: Sensitivity test: cell viability (Cell Counting Kit-8) after anticancer agent, RNA-transfected cells
Format: cell-based, Human
experimentalConditions: miR-100 introduced, MTX 72 hours, DOX and CDDP 48 hours
Procedure: Human osteosarcoma cell lines used were MNNG/HOS, MG63 and 143B. The cells were seeded in a 96-well plate at 3 x 10^3 cells/well. […] Methotrexate (MTX), doxorubicin (DOX) and cisplatin (CDDP) were applied to the cells lines MNNG/HOS, MG63 or 143B to which various RNAs were introduced under following conditions followed by incubation over a certain period. The viability of the cells thereafter was measured with the Cell Counting Kit-8 (Dojindo Laboratories). […]
valueKind: IC50
// return the numeric value with its unit appended

Ask | Entry [NH2][Pt]([NH2])([Cl])[Cl] [CDDP, Cisplatin] : reported IC50 = ?
Reply | 6.97 µM
